TESTED ON: BRD4 (Homo sapiens, UniProt O60885)
Construct: Mean 488 intensity of BRD4 quantitated in nuclear region; endogenous in cells; host or cells: EoL-1 eosinophilic leukemia cells
PROTOCOL: BRD4 degradation assay in EOL1 cells (immunofluorescence imaging)
Assay type: cell-based
CONDITIONS: EoL-1 eosinophilic leukemia cells, 4 hours treatment, nuclear BRD4 immunofluorescence
Positions of bridges follow the written chain, without caps; N, C: chain ends. Non-standard residues stand in square brackets, D forms with d. Residues, ends and D or L forms follow the SMILES beside them. *: point of attachment. JQ1acid = Cc1sc2c(c1C)C(c1ccc(Cl)cc1)=N[C@@H](CC(=O)*)c1nnc(C)n1-2; dPhg(4-(4-Me-thiazol-5-yl)) = Cc1ncsc1-c1ccc([C@@H](N)C(=O)O)cc1; Bip = N[C@@H](Cc1ccc(-c2ccccc2)cc1)C(=O)O; Hyp = O=C(O)[C@@H]1C[C@@H](O)CN1; Tle = CC(C)(C)[C@H](N)C(=O)O; dNMeC = CN[C@H](CS)C(=O)O; dDap = NC[C@@H](N)C(=O)O
PROPERTY MEASURED: DC50

{"columns": ["MOLECULE", "DC50"],
 "data": [
  ["Cc1sc2c(c1C)C(c1ccc(Cl)cc1)=N[C@@H](CC(=O)N(C)C[C@H]1NC(=O)CNC(=O)[C@@H](Cc3ccc(-c4ccccc4)cc3)NC(=O)[C@@H]3C[C@@H](O)CN3C(=O)[C@H](C(C)(C)C)n3cc(nn3)COCCNC1=O)c1nnc(C)n1-2", "< 1 µM"]
]}

Ask: Item: Cc1ncsc1-c1ccc([C@H]2NC(=O)[C@@H]3C[C@@H](O)CN3C(=O)[C@H](C(C)(C)C)NC(=O)CSC[C@H](C(N)=O)N(C)C(=O)[C@@H](CNC(=O)C[C@@H]3N=C(c4ccc(Cl)cc4)c4c(sc(C)c4C)-n4c(C)nnc43)NC(=O)CNC2=O)cc1 [Compound 15] ({CH2CO}-[Tle][Hyp][dPhg(4-(4-Me-thiazol-5-yl))]G[dDap](JQ1acid)[dNMeC]-NH2; thioether N-6) Test system: BRD4 (Homo sapiens, UniProt O60885) Read-out: DC50 Value: ?
Reply: < 20 µM

Ask: Next: Cc1sc2c(c1C)C(c1ccc(Cl)cc1)=N[C@@H](CC(=O)NC[C@H]1NC(=O)CNC(=O)[C@H](Cc3ccc(-c4ccccc4)cc3)NC(=O)[C@@H]3C[C@@H](O)CN3C(=O)[C@H](C(C)(C)C)NC(=O)CSC[C@H](C(N)=O)NC1=O)c1nnc(C)n1-2 [Compound 19] ({CH2CO}-[Tle][Hyp][Bip]G[dDap](JQ1acid)[dC]-NH2; thioether N-6)
Reply: < 20 µM

----------
TESTED ON: BRD4 (Homo sapiens, UniProt O60885)
Construct: Mean 488 intensity of BRD4 quantitated in nuclear region; endogenous in cells; host or cells: EoL-1 eosinophilic leukemia cells
PROTOCOL: BRD4 degradation assay in EOL1 cells (immunofluorescence imaging)
Assay type: cell-based
CONDITIONS: EoL-1 eosinophilic leukemia cells, 4 hours treatment, nuclear BRD4 immunofluorescence
Positions of bridges follow the written chain, without caps; N, C: chain ends. Non-standard residues stand in square brackets, D forms with d. Residues, ends and D or L forms follow the SMILES beside them. *: point of attachment. JQ1acid = Cc1sc2c(c1C)C(c1ccc(Cl)cc1)=N[C@@H](CC(=O)*)c1nnc(C)n1-2; dPhg(4-(4-Me-thiazol-5-yl)) = Cc1ncsc1-c1ccc([C@@H](N)C(=O)O)cc1; dBip = N[C@H](Cc1ccc(-c2ccccc2)cc1)C(=O)O; Hyp = O=C(O)[C@@H]1C[C@@H](O)CN1; Tle = CC(C)(C)[C@H](N)C(=O)O; dDap = NC[C@@H](N)C(=O)O; Ahp = NCCCCCCC(=O)O
PROPERTY MEASURED: DC50

Known results for compounds:
{"columns": ["COMPOUND", "TESTED ON", "PROPERTY MEASURED", "RESULT"],
 "data": [
  ["Cc1ncsc1-c1ccc([C@H]2NC(=O)[C@@H]3C[C@@H](O)CN3C(=O)[C@H](C(C)(C)C)NC(=O)CSC[C@H](C(=O)NCC(=O)NCC(=O)NCC(N)=O)NC(=O)[C@@H](CNC(=O)C[C@@H]3N=C(c4ccc(Cl)cc4)c4c(sc(C)c4C)-n4c(C)nnc43)NC(=O)CNC2=O)cc1 [Compound 11] ({CH2CO}-[Tle][Hyp][dPhg(4-(4-Me-thiazol-5-yl))]G[dDap](JQ1acid)[dC]GGG-NH2; thioether N-6)", "BRD4 (Homo sapiens, UniProt O60885)", "DC50", "> 20000 nM"],
  ["Cc1sc2c(c1C)C(c1ccc(Cl)cc1)=N[C@@H](CC(=O)NC[C@H]1NC(=O)[C@@H](C)NC(=O)[C@@H](Cc3ccc(-c4ccccc4)cc3)NC(=O)[C@@H]3C[C@@H](O)CN3C(=O)[C@H](C(C)(C)C)NC(=O)CCCCCCNC1=O)c1nnc(C)n1-2 [Compound 61] (cyclo([Ahp][Tle][Hyp][dBip][dA][dDap](JQ1acid)))", "BRD4 (Homo sapiens, UniProt O60885)", "DC50", "< 50 nM"]
]}

Now for another entry.
Ask: What value of measured DC50 is listed for Cc1ncsc1-c1ccc([C@H]2NC(=O)[C@@H]3C[C@@H](O)CN3C(=O)[C@H](C(C)(C)C)NC(=O)CSC[C@H](C(N)=O)NC(=O)[C@@H](CNC(=O)C[C@@H]3N=C(c4ccc(Cl)cc4)c4c(sc(C)c4C)-n4c(C)nnc43)NC(=O)[C@@H](C)NC2=O)cc1 [Compound 26] ({CH2CO}-[Tle][Hyp][dPhg(4-(4-Me-thiazol-5-yl))][dA][dDap](JQ1acid)[dC]-NH2; thioether N-6) ?
Reply: < 1000 nM

----------
TESTED ON: BRD4 (Homo sapiens, UniProt O60885)
Construct: Mean 488 intensity of BRD4 quantitated in nuclear region; endogenous in cells; host or cells: EoL-1 eosinophilic leukemia cells
PROTOCOL: BRD4 degradation assay in EOL1 cells (immunofluorescence imaging)
Type: cell-based
CONDITIONS: EoL-1 eosinophilic leukemia cells, 4 hours treatment, nuclear BRD4 immunofluorescence
Starred links: 1 amine or outer side, 2 acyl side, 3 side chain; linkers in the order of their positions; H or OH if unused. Positions of bridges follow the written chain, without caps; N, C: chain ends. Non-standard residues stand in square brackets, D forms with d. Residues, ends and D or L forms follow the SMILES beside them. *: point of attachment. JQ1acid = Cc1sc2c(c1C)C(c1ccc(Cl)cc1)=N[C@@H](CC(=O)*)c1nnc(C)n1-2; X3 = Cc1ncsc1-c1ccc(C(N[*:1])C(=O)[*:2])cc1; dBip = N[C@H](Cc1ccc(-c2ccccc2)cc1)C(=O)O; Hyp = O=C(O)[C@@H]1C[C@@H](O)CN1; Tle = CC(C)(C)[C@H](N)C(=O)O; dDap = NC[C@@H](N)C(=O)O; AEA = NCCOCC(=O)O; βAla = NCCC(=O)O
# DC50 listing for each entry below

Known results for compounds:
{"columns": ["COMPOUND", "TESTED ON", "DC50"],
 "data": [
  ["Cc1ncsc1-c1ccc(C2NC(=O)[C@@H]3C[C@@H](O)CN3C(=O)[C@H](C(C)(C)C)NC(=O)CSC[C@H](C(N)=O)NC(=O)[C@@H](CNC(=O)C[C@@H]3N=C(c4ccc(Cl)cc4)c4c(sc(C)c4C)-n4c(C)nnc43)NC(=O)CCNC2=O)cc1 (stereo partly drawn) [Compound 4] ({CH2CO}-[Tle][Hyp][X3][βAla][dDap](JQ1acid)[dC]-NH2; thioether N-6)", "BRD4 (Homo sapiens, UniProt O60885)", "< 20 µM"],
  ["Cc1sc2c(c1C)C(c1ccc(Cl)cc1)=N[C@@H](CC(=O)NC[C@H]1CCCNC(=O)[C@@H](Cc3ccc(-c4ccccc4)cc3)NC(=O)[C@@H]3C[C@@H](O)CN3C(=O)[C@H](C(C)(C)C)NC(=O)COCCNC1=O)c1nnc(C)n1-2", "BRD4 (Homo sapiens, UniProt O60885)", "< 0.05 µM"]
]}

Now for another entry.
Ask: Item: Cc1sc2c(c1C)C(c1ccc(Cl)cc1)=N[C@@H](CC(=O)NC[C@H]1NC(=O)CCNC(=O)[C@@H](Cc3ccc(-c4ccccc4)cc3)NC(=O)[C@@H]3C[C@@H](O)CN3C(=O)[C@H](C(C)(C)C)NC(=O)COCCNC1=O)c1nnc(C)n1-2 [Compound 62] (cyclo([AEA][Tle][Hyp][dBip][βAla][dDap](JQ1acid))) Test system: BRD4 (Homo sapiens, UniProt O60885) Read-out: DC50 Value: ?
Reply: < 1 µM
